# protocol_text: in vitro
# setup_conditions: human, hek293t cells
The threshold is 70%. Values of viability at 48 h, 25 µM beneath it are tagged yes (1); values meeting or exceeding it are tagged no (0).

Examples from the recorded data:
INSERT INTO assay_data (molecule, classification) VALUES
  ('CC(Cl)C(=O)N1CCCCC1C1CCCN(C(=O)C(F)(F)F)C1 (centres unmarked) [6-F16]', 'no (0)'),
  ('N#CC(=Cc1ccc([N+](=O)[O-])c(Cl)c1)C(=O)NC1CCCCC1 [8-B08]', 'yes (1)'),
  ('CC(C)NC(=O)C(C#N)=Cc1c(Cl)cccc1Cl [9-E13]', 'no (0)'),
  ('C=CC(=O)Nc1ccc(C(=O)N2CCCCC2c2n[nH]c(C)n2)cc1 (centres unmarked) [3-E13]', 'yes (1)'),
  ('CC(Cl)C(=O)Nc1ccc(S(=O)(=O)N2CCCCC2)cc1 (centres unmarked) [4-A12]', 'yes (1)');

Problem: Lab note: viability at 48 h, 25 µM threshold 70%. Does this molecule come in strictly under it? C=CC(=O)NC(C)Cn1cncn1 (centres unmarked) [3-C11]
Result: yes (1)

Problem: Here is the next molecule: COc1ccc2[nH]c3c(c2c1)CCCC3NC(=O)CCl (centres unmarked) [5-G07]
Result: yes (1)

Problem: Here is the next molecule: Cc1c(C#N)c(NC(=O)CCl)n(Cc2ccccc2)c1C [4-M21]
Result: yes (1)

Problem: Here is the next molecule: C=CC(=O)N1CCC(C(=O)NCc2ccc(-c3n[nH]c(C)n3)cc2)CC1 [3-M21]
Result: yes (1)

Problem: Here is the next molecule: CC(=O)Nc1cccc(N2C(=O)C=CC2=O)c1 [10-D09]
Result: no (0)

----------
# protocol_text: in vitro
# setup_conditions: human, hek293t cells
What viability at 48 h, 25 µM was measured for each of the following?
Answers are plain numbers, in %.

# count of solved cases: 6
INSERT INTO results (compound, units_of_measure, quantitative_result) VALUES
  ('O=C(CCl)NCCc1cccc2c1Oc1ccccc1O2', '%', 0.958),
  ('CC(Cl)C(=O)Nc1cccnc1Cl (stereo not shown)', '%', 106),
  ('C=CC(=O)NCCC(=O)N1CCN(c2nc(C)cs2)C(C)C1 (stereo not shown)', '%', 92.9),
  ('C=CC(=O)NCCc1ccc(S(C)(=O)=O)cc1', '%', 93.7),
  ('COC(=O)c1c(C(=O)CCl)c(C)n(C2CC2)c1C', '%', 93.4),
  ('O=C(CCl)NCc1ccccc1SC(F)(F)F', '%', 0.794);

Please give viability at 48 h, 25 µM for each item listed below.
1. CC(Cl)C(=O)Nc1ccc([N+](=O)[O-])cc1 (stereo not shown) [4-I18, 2-chloro-N-(4-nitrophenyl)propanamide]
2. C=CC(=O)Nc1ccc(F)c(C(=O)CC)c1
3. CC(=O)c1cccc(NC(=O)C(C)Cl)c1 (stereo not shown) [6-K22, N-(3-acetylphenyl)-2-chloropropanamide]
4. COc1ccc(C2CCCN2C(=O)CCl)c(OC)c1 (stereo not shown)

Result:
[86.7, 101, 105, 0.348]

----------
# protocol_text: in vitro
# setup_conditions: human, hek293t cells
recorded_endpoint: viability at 48 h, 25 µM (%)
Answers are plain numbers, in %.

INSERT INTO measurements (molecule, units_of_measure, quantitative_result) VALUES
  ('COc1ccc(NC(=O)C(C#N)=Cc2cccc(Cl)c2Cl)cc1', '%', 74.8);

Please give viability at 48 h, 25 µM for each item listed below.
1. N#CC(=Cc1ccc(C#N)cc1)C(=O)N1CCCC1
2. C=CC(=O)NC1(c2ncon2)CC1

Result:
1. 117
2. 68.7

----------
# protocol_text: in vitro
# setup_conditions: human, hek293t cells
What viability at 48 h, 25 µM was measured for each of the following?
Answers are plain numbers, in %.

# count of solved cases: 3
INSERT INTO assay_data (compound, recorded_endpoint, units_of_measure, quantitative_result) VALUES
  ('COc1ccc(C)cc1NC(=O)C(C)Cl (centres unmarked) [5-P22]', 'viability at 48 h, 25 µM', '%', 108),
  ('CCN(Cc1cccs1)C(=O)CCl [5-F07]', 'viability at 48 h, 25 µM', '%', 1.01),
  ('CCc1ccc(C=C(C#N)C(=O)Nc2cc(C)c(Cl)cc2OC)cc1 [8-G11]', 'viability at 48 h, 25 µM', '%', 92);

Please give viability at 48 h, 25 µM for each item listed below.
1. CC(Cl)C(=O)N(C)C1CCCc2c1cnn2C (centres unmarked) [6-L16]
2. CC(Cl)C(=O)Nc1ccccc1F (centres unmarked) [5-L10, 2-chloro-N-(2-fluorophenyl)propanamide]
3. O=C(CCl)NCCc1ccc2c(c1)OCCO2 [4-N11]
4. CC(O)=C(C#N)C(=O)Nc1ccc(C(F)(F)F)cc1 [9-A05]
5. Cc1nc(C)c(C(=O)CCl)o1 [10-N08]
6. Cc1nc(C)c(S(=O)(=O)N2CCSSCC2)s1 [10-M18]
7. C=CC(=O)N1Cc2c(C(=O)O)cnn2CC1C (centres unmarked) [3-N18]
8. COc1ccc(CN2CCN(C(=O)CCl)CC2)cc1F [4-P18]

Result:
[112, 99.2, 18.9, 90.6, 76.1, 90.2, 87, 0.482]

Please give viability at 48 h, 25 µM for each item listed below.
1. CC(Cl)C(=O)N1Cc2ccccc2OCC1C (centres unmarked) [7-F11]
2. C=CC(=O)N1CCCC(C(=O)O)C1 (centres unmarked) [1-G12]

Result:
86.6
60.4

Please give viability at 48 h, 25 µM for each item listed below.
1. N#CC(=Cc1cccc(Cl)c1Cl)C(N)=O [8-J21]
2. CC(Cl)C(=O)N1CCN(C(=O)c2cccc(OC(F)F)c2)CC1 (centres unmarked) [5-F17]
3. CC(Cl)C(=O)NC(C)c1ccns1 (centres unmarked) [6-P12]
4. CC(Cl)C(=O)N1CCN(C(=O)c2ccc3ccccc3c2)CC1 (centres unmarked) [7-E07]
5. CC(Cl)C(=O)NC(C)c1nnc(-c2cccc(F)c2)s1 (centres unmarked) [5-N15]

Result:
1: 121; 2: 106; 3: 115; 4: 96.2; 5: 98.1

----------
What viability at 48 h, 25 µM was measured for each of the following?
# protocol_text: in vitro
# setup_conditions: human, hek293t cells
One number for each entry, in %.

# count of solved cases: 5
INSERT INTO results (compound, recorded_endpoint, quantitative_result) VALUES
  ('C[C@H]1CN(C(=O)CCl)CCN1C(=O)c1cscn1 [5-L05]', 'viability at 48 h, 25 µM', 2.69),
  ('Cc1cc2ncn(CC(NC(=O)C(C)Cl)C3CC3)c2cc1C (centres unmarked) [7-J17]', 'viability at 48 h, 25 µM', 84.7),
  ('O=C1C=CC(=O)N1c1ccccc1Sc1ccc(Cl)cc1 [10-A03]', 'viability at 48 h, 25 µM', 7.21),
  ('Cc1nn(C)c(NC(=O)C(C)Cl)c1-c1ccccc1 (centres unmarked) [7-F21]', 'viability at 48 h, 25 µM', 84.5),
  ('C=CC(=O)NCC1CCC2(CCCOC2)O1 (centres unmarked) [2-O13]', 'viability at 48 h, 25 µM', 168);

Please give viability at 48 h, 25 µM for each item listed below.
1. Cc1ccc(C(CNC(=O)C(C)Cl)N2CCOCC2)s1 (centres unmarked) [7-N13]
2. C=CC(=O)N(Cc1cn(C)nc1CC)C1CCCCCC1 [1-H09]
3. Cc1ccc(C=C(C#N)C(=O)Nc2nccs2)s1 [8-P13]
4. CC(Cl)C(=O)NC1CCN(c2nnnn2C)CC1 (centres unmarked) [7-K08]
5. CC(Cl)C(=O)Nc1cc(Cl)ccc1Cl (centres unmarked) [6-A15]
6. O=C(CCl)Nc1nnc(SCc2ccccc2)s1 [4-F15]

Result:
1. 108
2. 84.9
3. 109
4. 82.1
5. 86.9
6. 0.76

----------
# protocol_text: in vitro
# setup_conditions: human, hek293t cells
The threshold is 10%. Values of viability at 48 h, 25 µM beneath it are tagged rule met; values meeting or exceeding it are tagged rule not met.

Examples from the recorded data:
INSERT INTO results (compound, classification) VALUES
  ('CC(Cl)C(=O)N1CCN(C(C)c2cccc(C#N)c2)CC1 (centres unmarked) [7-P22]', 'rule not met'),
  ('Cc1ccc(C(=O)c2c(NC(=O)CCl)sc3c2CCCC3)cc1 [6-A12]', 'rule not met'),
  ('CN(C)c1ccc(C=C(C#N)C(=O)Nc2ccc3c(c2)OCCO3)cc1 [9-B21]', 'rule not met'),
  ('C=CC(=O)Nc1ccc(C2=NNC(=O)CO2)cc1 [3-L18]', 'rule not met'),
  ('CC(Cl)C(=O)N1CCCCC1c1cnn(C)c1 (centres unmarked) [7-A03]', 'rule not met');

Problem: Lab note: viability at 48 h, 25 µM threshold 10%. Does this compound come in strictly under it? C=CC(=O)NCC1(c2ccnn2C)CC1 [2-P15]
Result: rule not met

Problem: Here is the next compound: C=CC(=O)Nc1ccc(-c2nc3cc(C)ccc3o2)cc1 [1-D20]
Result: rule met

Problem: Here is the next compound: C=CC(=O)Nc1cc(CC(C)(C)C)no1 [1-I19]
Result: rule met
